Where do the numbers come from? From ChEMBL document CHEMBL5360595.

# target.under.test: Receptor tyrosine-protein kinase erbB-2 (Homo sapiens, UniProt P04626)
# Sequence (P04626 whole entry): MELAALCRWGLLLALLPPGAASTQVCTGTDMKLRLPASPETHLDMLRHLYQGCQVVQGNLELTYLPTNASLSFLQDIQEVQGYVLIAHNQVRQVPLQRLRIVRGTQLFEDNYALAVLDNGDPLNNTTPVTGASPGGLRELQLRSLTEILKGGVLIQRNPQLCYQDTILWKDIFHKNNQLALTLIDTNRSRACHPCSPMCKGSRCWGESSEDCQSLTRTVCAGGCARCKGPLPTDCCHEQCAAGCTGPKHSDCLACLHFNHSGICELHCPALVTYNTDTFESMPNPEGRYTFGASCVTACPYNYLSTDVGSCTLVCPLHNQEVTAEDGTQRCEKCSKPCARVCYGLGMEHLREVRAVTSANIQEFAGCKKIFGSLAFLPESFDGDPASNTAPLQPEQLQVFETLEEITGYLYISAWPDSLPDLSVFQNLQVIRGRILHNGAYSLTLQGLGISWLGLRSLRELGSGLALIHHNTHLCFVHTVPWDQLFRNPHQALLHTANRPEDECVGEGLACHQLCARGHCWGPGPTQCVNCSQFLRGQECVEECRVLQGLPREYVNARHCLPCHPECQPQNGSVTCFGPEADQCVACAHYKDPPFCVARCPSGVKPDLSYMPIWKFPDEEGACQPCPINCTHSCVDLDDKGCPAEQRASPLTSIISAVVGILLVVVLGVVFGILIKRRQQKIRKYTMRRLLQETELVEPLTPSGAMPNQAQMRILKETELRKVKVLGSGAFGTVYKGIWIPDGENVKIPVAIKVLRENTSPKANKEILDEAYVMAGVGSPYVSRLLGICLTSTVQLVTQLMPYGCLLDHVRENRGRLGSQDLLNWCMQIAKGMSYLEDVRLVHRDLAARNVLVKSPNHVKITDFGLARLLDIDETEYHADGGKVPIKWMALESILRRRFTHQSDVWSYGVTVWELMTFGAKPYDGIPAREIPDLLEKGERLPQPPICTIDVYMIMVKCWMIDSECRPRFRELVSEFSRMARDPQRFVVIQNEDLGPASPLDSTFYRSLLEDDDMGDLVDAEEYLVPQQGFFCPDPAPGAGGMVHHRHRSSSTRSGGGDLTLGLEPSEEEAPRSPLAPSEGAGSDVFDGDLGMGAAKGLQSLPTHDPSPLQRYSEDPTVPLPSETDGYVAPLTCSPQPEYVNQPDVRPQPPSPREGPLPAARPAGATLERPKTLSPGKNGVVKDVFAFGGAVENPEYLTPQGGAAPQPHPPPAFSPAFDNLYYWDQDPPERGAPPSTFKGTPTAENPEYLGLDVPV
# protocol: Inhibition of HER2 (unknown origin) incubated for 40 mins by Kinase-Glo Max assay
measure: IC50 (nM)

[1] CC[n+]1c(/C=C/c2ccc(-c3ccc4ncnc(Nc5ccc(OCc6cccc(F)c6)c(Cl)c5)c4c3)s2)sc2ccccc21
[2] CC[n+]1c(/C=C/c2ccc(-c3ccc4ncnc(Nc5ccc(OCc6cccc(F)c6)c(Cl)c5)c4c3)o2)sc2ccccc21
Query block: Lower IC50: 1 or 2 ? Return value: the label identifying the chosen record.
Result block: 2
